Provenance of the data: patent US20240299385A1

Overview of recorded IC50 for various compounds
Experimental System: human GPR17 receptor (Homo sapiens)
Measurement Protocol: Calcium mobilization functional assay (Fluo-8, FLIPR TETRA) in HEK-293 hGPR17 (Gα-q assay)
Experimental Context: antagonism of MDL29,951 (~EC80) induced Ca2+ signal; cell line (HEK-293 hGPR17 or HEK-293 Suchi5 hGPR17) not given

O=S(=O)(Nc1ncc(C(F)(F)F)cc1F)c1c[nH]c(-c2ccccc2)c1 [Cpd 140]; 500 to 5000 nM
O=S(=O)(Nc1cccc2c1OCO2)c1c[nH]c(-c2ccccc2)c1 [Cpd 069]; 500 to 5000 nM
O=S(=O)(Nc1cc(F)c(C(F)(F)F)cc1F)c1c[nH]c(-c2cc(CO)ccc2F)c1 [Cpd 234]; < 500 nM
N#Cc1ccc(NS(=O)(=O)c2c[nH]c(-c3ccccc3F)c2)c(F)c1 [Cpd 014]; < 500 nM
O=S(=O)(Nc1cc(F)c(-c2ccccc2)cc1F)c1c[nH]c(-c2ccccn2)c1 [Cpd 174]; 5000 to 50000 nM

Entry under review: O=S(=O)(Nc1cc(F)c(Br)cc1F)c1c[nH]cc1Cc1ccccc1 [Cpd 193] . Reported IC50?
500 to 5000 nM

Entry under review: O=S(=O)(Nc1cc(F)c(C(F)(F)F)cc1F)c1c[nH]c(-c2ccc(F)cc2F)c1 [Cpd 366] . Reported IC50?
500 to 5000 nM

Entry under review: N#Cc1ccc(NS(=O)(=O)c2c[nH]c(-c3ncccc3Cl)c2)c(F)c1 [Cpd 349] . Reported IC50?
< 500 nM

====

Experimental System: human GPR17 receptor (Homo sapiens)
Measurement Protocol: Calcium mobilization functional assay (Fluo-8, FLIPR TETRA) in HEK-293 hGPR17 (Gα-q assay)
Experimental Context: antagonism of MDL29,951 (~EC80) induced Ca2+ signal; cell line (HEK-293 hGPR17 or HEK-293 Suchi5 hGPR17) not given
Endpoint Name: IC50

N#CCOc1cc(F)c(NS(=O)(=O)c2c[nH]c(-c3ccccc3)c2)cc1Cl; 500 to 5000 nM

Entry under review: O=S(=O)(Nc1cc(F)c(C(F)(F)F)cc1F)c1c[nH]c(-c2nccn2CC(F)(F)F)c1 . Reported IC50?
5000 to 50000 nM

Entry under review: N#Cc1ccc(NS(=O)(=O)c2c[nH]c(-c3cc(F)c(F)cc3F)c2)c(F)c1 . Reported IC50?
< 500 nM

Entry under review: N#Cc1ccc(NS(=O)(=O)c2c[nH]c(-c3ccc(F)cc3F)c2)c(F)c1 . Reported IC50?
< 500 nM

Entry under review: N#CCc1ccc(NS(=O)(=O)c2c[nH]c(-c3ccccc3F)c2)c(F)c1 . Reported IC50?
500 to 5000 nM

====

Overview of recorded IC50 for various molecules
Experimental System: human GPR17 receptor (Homo sapiens, UniProt Q13304)
Sequence (Q13304 whole entry): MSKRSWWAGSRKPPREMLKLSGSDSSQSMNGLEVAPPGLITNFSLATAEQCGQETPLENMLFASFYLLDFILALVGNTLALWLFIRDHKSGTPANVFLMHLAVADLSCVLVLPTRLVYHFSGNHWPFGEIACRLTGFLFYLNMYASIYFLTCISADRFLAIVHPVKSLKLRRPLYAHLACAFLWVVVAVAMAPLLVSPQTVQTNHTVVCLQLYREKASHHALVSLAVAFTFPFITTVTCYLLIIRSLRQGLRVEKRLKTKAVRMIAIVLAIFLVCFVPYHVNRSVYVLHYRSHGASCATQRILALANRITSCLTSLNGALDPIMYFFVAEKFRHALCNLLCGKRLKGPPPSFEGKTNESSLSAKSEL
Measurement Protocol: Calcium mobilization functional assay (Fluo-8, FLIPR TETRA) in HEK-293 hGPR17 (Gα-q assay)
Experimental Context: antagonism of MDL29,951 (~EC80) induced Ca2+ signal; cell line (HEK-293 hGPR17 or HEK-293 Suchi5 hGPR17) not given

N#Cc1ccc(NS(=O)(=O)c2c[nH]cc2-c2cccc(Cl)c2)c(F)c1; < 500 nM
O=S(=O)(Nc1cc(F)c(C(F)(F)F)cc1F)c1c[nH]c(-c2ccc(F)cc2)c1; 500 to 5000 nM
N#Cc1ccc(NS(=O)(=O)c2c[nH]cc2-c2ccccc2)c(F)c1; 500 to 5000 nM
CCOc1ccccc1-c1cc(S(=O)(=O)Nc2ccc(C#N)cc2F)c[nH]1; 500 to 5000 nM
N#Cc1ccc(NS(=O)(=O)c2c[nH]c(-c3cccn(C(F)F)c3=O)c2)c(F)c1; 500 to 5000 nM

Entry under review: O=S(=O)(Nc1ccc(Cl)cc1F)c1c[nH]cc1Cc1ccccc1 . Reported IC50?
5000 to 50000 nM

Entry under review: Cc1ccc(-c2cc(S(=O)(=O)Nc3ccc(C#N)cc3F)c[nH]2)c(F)c1 . Reported IC50?
500 to 5000 nM

Entry under review: COc1csc(-c2cc(S(=O)(=O)Nc3cc(F)c(OC(F)F)cc3F)c[nH]2)c1 . Reported IC50?
< 500 nM

Entry under review: O=S(=O)(Nc1cc(Cl)c(C(F)(F)F)cc1F)c1c[nH]c(-c2ccccn2)c1 . Reported IC50?
500 to 5000 nM

Entry under review: O=S(=O)(Nc1ccc(F)cc1F)c1c[nH]c(-c2ccccn2)c1 . Reported IC50?
5000 to 50000 nM

Entry under review: COc1cc(CC#N)ccc1NS(=O)(=O)c1c[nH]c(-c2ccccc2)c1 . Reported IC50?
500 to 5000 nM

Entry under review: N#Cc1ccc(NS(=O)(=O)c2c[nH]c(-c3cccc(F)c3Cl)c2)c(F)c1 . Reported IC50?
< 500 nM

Entry under review: Cc1ccc(-c2cc(S(=O)(=O)Nc3ccc(C#N)cc3F)c[nH]2)c(Cl)c1 . Reported IC50?
500 to 5000 nM

Entry under review: N#Cc1cc(F)c(NS(=O)(=O)c2c[nH]c(-c3ccccn3)c2)cc1F . Reported IC50?
< 500 nM

Entry under review: N#Cc1ccc(NS(=O)(=O)c2c[nH]cc2Cc2cc(F)cc(F)c2)c(F)c1 . Reported IC50?
< 500 nM

Entry under review: O=S(=O)(Nc1cc(F)c(C(F)(F)F)cc1F)c1c[nH]c(-c2cnccn2)c1 . Reported IC50?
500 to 5000 nM

====

Experimental System: human GPR17 receptor (Homo sapiens)
Construct: host or cells: HEK-293
Measurement Protocol: Calcium mobilization functional assay (Fluo-8, FLIPR TETRA) in HEK-293 hGPR17 (Gα-q assay)
Format: cell-based
Experimental Context: antagonism of MDL29,951 (~EC80) induced Ca2+ signal; cell line (HEK-293 hGPR17 or HEK-293 Suchi5 hGPR17) not given
Endpoint Name: IC50

Before answering, review these 6 worked examples.
Cc1cc(NS(=O)(=O)c2c[nH]c(-c3ccccc3)c2)c(F)cc1C#N [Cpd 326]; < 0.5 µM
O=S(=O)(Nc1cc(F)c(C(F)(F)F)cc1F)c1c[nH]c(-c2c(F)cccc2Cl)c1 [Cpd 363]; 0.5 to 5 µM
N#Cc1ccc(NS(=O)(=O)c2c[nH]c(-c3nccc4ccccc34)c2)c(F)c1 [Cpd 396]; < 0.5 µM
N#Cc1ccc(NS(=O)(=O)c2c[nH]c(-c3cccc(Cl)c3Cl)c2)c(F)c1 [Cpd 292]; 0.5 to 5 µM
O=S(=O)(Nc1cc(F)c(C(F)(F)F)cc1F)c1c[nH]c(-c2cccc(Br)n2)c1 [Cpd 371]; 0.5 to 5 µM
COc1ccc(-c2cc(S(=O)(=O)Nc3ccc(C#N)cc3F)c[nH]2)c(F)c1 [Cpd 086]; 0.5 to 5 µM

Short answer please: IC50, human GPR17 receptor (Homo sapiens), entry COc1ccc(F)c(-c2cc(S(=O)(=O)Nc3cc(F)c(C(F)(F)F)cc3F)c[nH]2)c1 [Cpd 117]
0.5 to 5 µM

Short answer please: IC50, human GPR17 receptor (Homo sapiens), entry N#Cc1ccc(NS(=O)(=O)c2c[nH]cc2-c2ccc(Cl)cc2)c(F)c1 [Cpd 218]
0.5 to 5 µM

Short answer please: IC50, human GPR17 receptor (Homo sapiens), entry O=S(=O)(Nc1cc(Cl)c(OC(F)F)cc1F)c1c[nH]c(-c2ccccc2)c1 [Cpd 455]
< 0.5 µM

Short answer please: IC50, human GPR17 receptor (Homo sapiens), entry Cc1cc(NS(=O)(=O)c2c[nH]cc2Cc2ccccc2)c(F)cc1C#N [Cpd 440]
< 0.5 µM

Short answer please: IC50, human GPR17 receptor (Homo sapiens), entry N#Cc1ccc(NS(=O)(=O)c2c[nH]c(-c3ccccc3OC(F)F)c2)c(F)c1 [Cpd 244]
< 0.5 µM

Short answer please: IC50, human GPR17 receptor (Homo sapiens), entry N#Cc1ccc(NS(=O)(=O)c2c[nH]cc2Cc2cccnc2)c(F)c1 [Cpd 184]
0.5 to 5 µM

Short answer please: IC50, human GPR17 receptor (Homo sapiens), entry N#Cc1ccc(NS(=O)(=O)c2c[nH]cc2Cc2ccsc2)c(F)c1 [Cpd 392]
< 0.5 µM

Short answer please: IC50, human GPR17 receptor (Homo sapiens), entry N#Cc1ccc(NS(=O)(=O)c2c[nH]cc2C(=O)c2ccccc2)c(F)c1 [Cpd 195]
0.5 to 5 µM

Short answer please: IC50, human GPR17 receptor (Homo sapiens), entry Cc1cc(NS(=O)(=O)c2c[nH]c(-c3ccccc3)c2)c(F)cc1C(F)(F)F [Cpd 338]
0.5 to 5 µM

Short answer please: IC50, human GPR17 receptor (Homo sapiens), entry N#Cc1cc(F)c(NS(=O)(=O)c2c[nH]c(-c3ccc(F)cc3)c2)cc1F [Cpd 509]
< 0.5 µM

Short answer please: IC50, human GPR17 receptor (Homo sapiens), entry N#Cc1cc(F)c(NS(=O)(=O)c2c[nH]c(-c3cc(Cl)c(F)cc3F)c2)cc1F [Cpd 456]
< 0.5 µM

Short answer please: IC50, human GPR17 receptor (Homo sapiens), entry O=S(=O)(Nc1ncc(OCC(F)F)cc1F)c1c[nH]cc1Cc1ccccc1 [Cpd 432]
0.5 to 5 µM
